{"structure": "O=C(NN1CCOC1=O)c1ccc(-c2noc(C(F)(F)F)n2)cc1", "melting point": "196 to 200 °C"}
{"structure": "O=C(NN1CCCCC1=O)c1ccc(-c2noc(C(F)(F)F)n2)cc1F", "melting point": "120 to 136 °C"}
{"structure": "O=C(NN1CCc2ccccc21)c1ccc(-c2noc(C(F)(F)F)n2)cc1", "melting point": "167 to 170 °C"}
{"structure": "O=C(NN1CCOC1=O)c1ccc(-c2noc(C(F)(F)F)n2)c(F)c1", "melting point": "146 to 166 °C"}
{"structure": "O=C1CN(NC(=O)c2ccc(-c3noc(C(F)(F)F)n3)cc2)C(=O)N1", "melting point": "192 to 196 °C"}

----------
Readings of melting point for the listed compounds
measure: melting point

{"compound": "CN1CCN(NC(=O)c2ccc(-c3noc(C(F)(F)F)n3)cc2)C1=O", "value": "238 to 245 °C"}
{"compound": "O=C(NN1CCOCC1)c1ccc(-c2noc(C(F)(F)F)n2)c(F)c1", "value": "140 to 160 °C"}
{"compound": "O=C(Cc1ccc(-c2noc(C(F)(F)F)n2)cc1)NN1CCOC1=O", "value": "184 to 187 °C"}
{"compound": "NN(C(=O)c1ccccc1)C(=O)c1ccc(-c2noc(C(F)(F)F)n2)cc1", "value": "115.3 to 118.6 °C"}
{"compound": "CC(C)OCC1CN(NC(=O)c2ccc(-c3noc(C(F)(F)F)n3)cc2)C(=O)O1 (stereo not drawn)", "value": "192 to 197 °C"}
{"compound": "Cc1cc(-c2noc(C(F)(F)F)n2)cnc1C(=O)NN1CCCCC1=O", "value": "159 to 162 °C"}
{"compound": "O=C(Cc1ccc(-c2noc(C(F)(F)F)n2)cc1F)NN1CCCCC1=O", "value": "154 to 156 °C"}
{"compound": "CN(C)NC(=O)Cc1ccc(-c2noc(C(F)(F)F)n2)cc1F", "value": "156 to 158 °C"}
{"compound": "O=C(NN1CCCCC1=O)c1c(F)cc(-c2noc(C(F)(F)F)n2)cc1F", "value": "205 to 209 °C"}
{"compound": "O=C(Cc1ccc(-c2noc(C(F)(F)F)n2)cc1F)NN1CCOCC1", "value": "201 to 203 °C"}
{"compound": "O=C(Nn1ccc2ccccc21)c1ccc(-c2noc(C(F)(F)F)n2)cc1", "value": "188 to 190 °C"}
{"compound": "O=C(NN1CCCCC1=O)c1ccc(-c2noc(C(F)(F)F)n2)c(F)c1", "value": "180 to 200 °C"}

Value source: patent US20190292174A1
